Values were extracted from patent US20120207760A1.

molecular target: hemagglutinin (HA) on live influenza A virus A/Solomon Islands/3/06 H1N1 (Influenza A virus A/Solomon …); experiment: cell-based or functional assay
METRIC: % Neutralization (%)
Give a bare numeral; the unit % is implied.

Bench note: what % Neutralization did TCN-537 (3194_D21) (antibody, V domains shown) VH: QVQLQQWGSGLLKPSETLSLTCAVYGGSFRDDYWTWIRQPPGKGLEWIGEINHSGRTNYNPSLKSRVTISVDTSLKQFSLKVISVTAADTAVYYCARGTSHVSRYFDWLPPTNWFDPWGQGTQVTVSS VL: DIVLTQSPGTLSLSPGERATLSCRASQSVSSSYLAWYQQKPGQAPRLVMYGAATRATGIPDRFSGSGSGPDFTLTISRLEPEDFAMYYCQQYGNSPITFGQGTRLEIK show?
0
